- Tested on: Vero E6 cells
- protocol summary: cells
- applied conditions: Chlorocebus sabaeus, Vero C1008, 48 h, read-out: Cytoxicity (%)
Measured cytotoxicity at 0.49485 µM, listed per entry.
Kindly answer with a numeric value in %, unit omitted.

Example entries begin here.
molecule | cytotoxicity at 0.49485 µM / %
NCCc1ccc(O)c(O)c1 [Compound 4, dopamine, reference compound] | 23.1
Oc1ccc(C[C@@H]2NCCc3cc(O)c(O)cc32)cc1 [Compound 6, norcoclaurine] | 9.98
COc1cc2c(cc1O)[C@@H](Cc1ccc(O)cc1)N(C)CC2 [(R)-N-Methylcolaurine] | 20.1
COc1ccc2cc3[n+](cc2c1OC)CCc1cc2c(cc1-3)OCO2 [berberine (2), berberine, reference compound] | 11.2
COc1ccc2c(c1O)-c1c(O)c(OC)cc3c1[C@H](C2)[N+](C)(C)CC3 [Magnoflorine] | 8.84

Moving on to another molecule below.
IN: Looking for the measured cytotoxicity at 0.49485 µM of COc1cc2c(cc1O)[C@@H]1Cc3ccc(OC)c(O)c3CN1CC2 [(S)-Scoulerine] , can you help?
OUT: 25.7
